Data origin: patent US20260209316A1

- target.entity: T1, full-length Sudan GP (GPFL) (Sudan virus (SUDV), UniProt Q7T9D9 33-650)
- T1 construct: also called Sudan GPFL; GP(S)FL
- T1 sequence: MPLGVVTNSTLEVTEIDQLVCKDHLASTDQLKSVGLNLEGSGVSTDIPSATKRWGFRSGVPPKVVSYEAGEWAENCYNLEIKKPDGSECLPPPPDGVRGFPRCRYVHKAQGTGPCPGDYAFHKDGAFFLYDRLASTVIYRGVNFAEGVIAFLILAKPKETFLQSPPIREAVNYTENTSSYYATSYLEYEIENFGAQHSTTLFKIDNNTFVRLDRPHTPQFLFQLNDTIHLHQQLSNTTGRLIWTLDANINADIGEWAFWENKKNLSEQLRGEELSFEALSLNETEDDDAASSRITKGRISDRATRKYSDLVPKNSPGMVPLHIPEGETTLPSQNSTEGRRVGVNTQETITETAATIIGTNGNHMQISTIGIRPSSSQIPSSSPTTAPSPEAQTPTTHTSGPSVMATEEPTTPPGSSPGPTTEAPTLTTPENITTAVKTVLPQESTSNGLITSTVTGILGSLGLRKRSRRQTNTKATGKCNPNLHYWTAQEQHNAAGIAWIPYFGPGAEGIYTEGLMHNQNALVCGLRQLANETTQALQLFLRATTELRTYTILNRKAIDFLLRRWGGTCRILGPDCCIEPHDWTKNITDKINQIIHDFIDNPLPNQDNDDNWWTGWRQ
- assay.method.text: BLI, Fab, pH 7.4
test.readout: kon
Respond with a number, then the unit of measure.

kon recorded for this binder, Fab generated from 285S (Fab, V domains shown) VH: QVQLVQSGAEVKKPGSSVKVSCKASGGTFSTYAITWVRQAPGQGLEWMGRIIPILRVANYAQKFQGRVTITADSSTSTAYMELSSLRSEDTAVYYCANLLAYCGGDCRSDYWGQGTLVTVSS VL: EIVLTQSPGTLSLSPGERATLSCRASQSVKNSYLAWYHQKPGQAPRLLIYGASSRATGIPDRFSGSGSGTDFTLTISRLEPEDFAVYYCQQYGSSLWTFGQGTKVDVK , is 42200 M⁻¹ s⁻¹
